Each recorded value in this set is attributed to patent US7956196B2.

Measured melting point of individual entries
quantity kind: melting point (°C)

N#Cc1ccc(Cn2c(=NC(=O)c3ccc(Br)cc3)n(Cc3cccc4cccnc34)c3ccccc32)cc1 [Compound 26]; 125
N#Cc1ccc(Cn2c(=NC(=O)c3cccc([N+](=O)[O-])c3)n(Cc3cccc4cccnc34)c3ccccc32)cc1 [Compound 22]; 222
COc1ccc(C(=O)Cn2c(=NCCc3ccc(Br)cc3)n(Cc3cccc4cccnc34)c3ccccc32)cc1 [Compound 50]; 152
COc1ccc(CCCN=c2n(Cc3ccc(C#N)cc3)c3ccccc3n2Cc2cccc3cccnc23)cc1 [Compound 9]; 80

---

quantity kind: melting point (°C)

COc1ccc(Cn2c(=NCCc3ccc(Br)cc3)n(Cc3cccc4cccnc34)c3ccccc32)cc1 [Compound 44]; 87
COC(=O)c1ccc(Cn2c(=NC(=O)c3ccc(Br)cc3)n(Cc3cccc4cccnc34)c3ccccc32)cc1 [Compound 40]; 131
N#Cc1ccc(Cn2c(=NCCCN3CCOCC3)n(Cc3cccc4cccnc34)c3ccccc32)cc1 [Compound 13]; 80
N#Cc1ccc(Cn2c(=NC(=O)c3ccc(C#N)cc3)n(Cc3cccc4cccnc34)c3ccccc32)cc1 [Compound 31]; 182
COc1ccc(CCN=c2n(Cc3ccc(Cl)cc3)c3ccccc3n2Cc2cccc3cccnc23)cc1 [Compound 46]; 250
CC(C)Oc1ccc(C(=O)N=c2n(Cc3ccc(C#N)cc3)c3ccccc3n2Cc2cccc3cccnc23)cc1 [Compound 30]; 118
O=C(Cn1c(=NCCc2ccc(Br)cc2)n(Cc2cccc3cccnc23)c2ccccc21)c1ccc(Br)cc1 [Compound 52]; 120
Cc1ccc(CCCO)c(NCc2ccc3c(c2)n(Cc2nc(C)ccc2O)c(=N)n3C)c1 [Compound 58]; 195
COC(=O)c1ccc(Cn2c(=NCCC(c3ccccc3)c3ccccc3)n(Cc3cccc4cccnc34)c3ccccc32)cc1 [Compound 38]; 146
N#Cc1ccc(Cn2c(=NC(=O)c3ccc(Cl)cc3Cl)n(Cc3cccc4cccnc34)c3ccccc32)cc1 [Compound 23]; 114
N#Cc1ccc(Cn2c(=NC(=O)c3ccc([N+](=O)[O-])cc3)n(Cc3cccc4cccnc34)c3ccccc32)cc1 [Compound 28]; 196
N#Cc1ccc(Cn2c(=NC(=O)c3ccc(Cl)cc3)n(Cc3cccc4cccnc34)c3ccccc32)cc1 [Compound 21]; 154
Cc1ccc(O)c(Cn2c(=NCCc3ccc(Br)cc3)n(Cc3ccc(C#N)cc3)c3ccccc32)n1 [Compound 57]; 204
COC(=O)c1ccc(Cn2c(=NCCc3cccc(F)c3)n(Cc3cccc4cccnc34)c3ccccc32)cc1 [Compound 36]; 89
Cc1cc(C)cc(CN=c2n(Cc3ccc(C#N)cc3)c3ccccc3n2Cc2cccc3cccnc23)c1 [Compound 16]; 142
